Recorded values, source patent US20260242478A1.

// reported IC50 for each item listed
- subjectOfTest: anti-CD28 Fab
- Sequence (VH, as listed by the source, chain 1 of 2): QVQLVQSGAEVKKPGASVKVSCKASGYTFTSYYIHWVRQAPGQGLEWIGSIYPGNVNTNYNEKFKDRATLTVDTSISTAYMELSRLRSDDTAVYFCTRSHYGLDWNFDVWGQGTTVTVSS
- Sequence (VL, as listed by the source, chain 2 of 2): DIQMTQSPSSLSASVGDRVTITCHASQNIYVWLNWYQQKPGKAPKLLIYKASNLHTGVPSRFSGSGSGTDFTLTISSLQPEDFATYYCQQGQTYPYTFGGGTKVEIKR
- assayRemarks: competition ELISA, peptide titrated 0-100 uM against 1 nM anti-CD28 Fab, plate-bound CD28 as competitor

- binder: "TCSAGATYTWPKCF [Peptide-141]"
  readoutUnit: "nM"
  IC50: 2220
- binder: "SCSAGAHYPWPQCF [Peptide-148]"
  readoutUnit: "nM"
  IC50: 5670
- binder: "TCAAGAHYPWPACL [Peptide-154]"
  readoutUnit: "nM"
  IC50: 2200
- binder: "TCSAGATWAWPLCF [Peptide-152]"
  readoutUnit: "nM"
  IC50: 2220
